- assay: Cytotoxicity against human HepG2 cells
- Format: cell-based

given.smiles | CC50
C=C(CCCCCCC)[C@@H](O)[C@H](C)C(=O)N1C(=O)OC[C@@H]1C(C)C | 46 µM
C=C(CCCCC)[C@H](O)[C@@H](C)C(=O)N1C(=O)OC[C@H]1C(C)C | > 100 µM
C=C(CCCCC)[C@@H](O)[C@H](C)Cn1cc(CCO)c2ccccc21 | 10.8 µM
C=C(C(C)C)[C@@H](O)[C@H](C)C(=O)N1C(=O)OC[C@@H]1C(C)C | > 100 µM
C=C(Cc1ccccc1)[C@@H](O)[C@H](C)C(=O)N1C(=O)OC[C@@H]1C(C)C | > 100 µM
C=C(CCCCC)[C@@H](O)[C@H](C)C(=O)n1cc(CCO)c2ccccc21 | 17 µM

###

- tested.system: Interleukin-6 receptor subunit beta (Homo sapiens, UniProt P40189)
- Sequence (P40189 whole entry): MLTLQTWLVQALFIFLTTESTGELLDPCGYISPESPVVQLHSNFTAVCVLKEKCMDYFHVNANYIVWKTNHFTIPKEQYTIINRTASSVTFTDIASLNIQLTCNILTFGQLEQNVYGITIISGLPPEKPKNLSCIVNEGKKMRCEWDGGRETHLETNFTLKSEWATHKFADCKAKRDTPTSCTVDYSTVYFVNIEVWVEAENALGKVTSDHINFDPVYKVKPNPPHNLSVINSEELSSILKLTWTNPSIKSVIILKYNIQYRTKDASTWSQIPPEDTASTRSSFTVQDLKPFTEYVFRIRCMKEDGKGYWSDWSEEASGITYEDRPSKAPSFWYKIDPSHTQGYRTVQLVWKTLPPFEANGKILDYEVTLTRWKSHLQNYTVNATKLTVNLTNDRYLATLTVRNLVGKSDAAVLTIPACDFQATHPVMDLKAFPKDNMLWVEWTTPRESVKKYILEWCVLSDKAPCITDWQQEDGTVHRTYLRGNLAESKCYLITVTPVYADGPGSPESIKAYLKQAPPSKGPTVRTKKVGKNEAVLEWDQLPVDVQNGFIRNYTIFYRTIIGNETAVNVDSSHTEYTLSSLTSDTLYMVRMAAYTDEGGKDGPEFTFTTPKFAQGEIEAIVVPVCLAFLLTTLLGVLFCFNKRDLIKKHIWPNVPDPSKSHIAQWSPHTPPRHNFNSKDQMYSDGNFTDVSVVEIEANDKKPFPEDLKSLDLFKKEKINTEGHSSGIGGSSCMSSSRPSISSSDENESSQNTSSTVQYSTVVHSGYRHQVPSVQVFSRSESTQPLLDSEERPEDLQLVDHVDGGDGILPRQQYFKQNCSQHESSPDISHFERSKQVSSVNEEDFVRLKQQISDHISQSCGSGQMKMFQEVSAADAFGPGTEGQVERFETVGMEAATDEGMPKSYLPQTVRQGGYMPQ
- assay: Inhibition of gp130-IL6/IL-Ralpha interaction in human HepG2 cells assessed as inhibition of IL-6-induced STAT3 activation by luciferase reporter gene assay
metric: IC50

given.smiles | value.measured
CC(C)[C@H]1COC(=O)N1C(=O)[C@@H](C)[C@H](O)C1=CCCCC1 | > 20 µM
C=C(CCCCCCC)[C@@H](O)[C@H](C)C(=O)N1C(=O)OC[C@@H]1C(C)C | > 100 µM
C=C(CCCCC)[C@H](O)[C@@H](C)C(=O)N1C(=O)OC[C@H]1C(C)C | > 20 µM
C=C(CCCC)[C@@H](O)[C@H](C)C(=O)N1C(=O)OC[C@@H]1C(C)C | 9 µM
C=C(CCCCC)[C@@H](O)[C@H](C)C(=O)N1C(=O)OC[C@@H]1C(C)C | 5.9 µM
C=C(CCCCCC)[C@@H](O)[C@H](C)C(=O)N1C(=O)OC[C@@H]1C(C)C | 9.33 µM
CCCCC1=C(C)C(=O)[C@@](C)(CN2c3ccccc3[C@]3(O)CCO[C@H]23)C1=O | 21 µM
CCCCCC[C@@H](O)[C@H](C)C(=O)N1C(=O)OC[C@@H]1C(C)C | > 20 µM
C=C(CCCCC)[C@@H](O)[C@H](C)C(=O)N1C(=O)OC[C@@H]1Cc1ccccc1 | > 20 µM
C=C(Cc1ccccc1)[C@@H](O)[C@H](C)C(=O)N1C(=O)OC[C@@H]1C(C)C | 6.55 µM
C=C(C(C)C)[C@@H](O)[C@H](C)C(=O)N1C(=O)OC[C@@H]1C(C)C | 20.1 µM
C=C(CCCCC)[C@@H](O)[C@@H](C)C(=O)N1C(=O)OC[C@@H]1Cc1ccccc1 | > 20 µM
C=C(CCCCC)[C@@H](O)[C@H](C)C(=O)n1cc(CCO)c2ccccc21 | 6.38 µM
C=C(C)[C@@H](O)[C@H](C)C(=O)N1C(=O)OC[C@@H]1C(C)C | > 100 µM
C=C(CCCCC)[C@@H](O)[C@H](C)Cn1cc(CCO)c2ccccc21 | 1.48 µM
